Tgt: FimHtrJ96 (Escherichia coli, UniProt P08191)
Construct: coding for the lectin domain of FimH (residues 1-158) with a C-terminal 6-histidine tag; made in house; host or cells: E. coli HB101 (lacking the fim operon), periplasmic extract, plasmid pPKL241
Sequence (P08191 22-179): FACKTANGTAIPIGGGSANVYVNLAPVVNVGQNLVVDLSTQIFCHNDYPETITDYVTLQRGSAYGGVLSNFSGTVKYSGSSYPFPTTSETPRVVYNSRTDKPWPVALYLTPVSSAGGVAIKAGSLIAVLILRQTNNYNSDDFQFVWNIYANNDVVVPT
Measurement notes: biochemical
Format: binding, uropathogenic E. coli strain J96
Experimental conditions: displacement assay, FimHtrJ96; read-out: KD
Observed property: Kd (nM)
One number for each entry, in nM.

O=[N+]([O-])c1ccc(OC2O[C@H](CO)[C@@H](O)[C@H](O)[C@@H]2O)cc1 (stereo partly drawn) [p-Nitrophenyl man, p-Nitrophenyl α-mannoside]	26

Shift focus to the following entry.
Find the recorded Kd belonging to Cc1cc(=O)oc2cc(O[C@H]3O[C@H](CO)[C@@H](O)[C@H](O)[C@@H]3O)ccc12 [Umbelliferyl man, 4-Methylumbelliferyl α-mannoside] and report it.
12

Reference source for all entries: patent US20080171706A1
